experiment: log P by HPLC on reversed-phase column (EEC Directive 79/831 Annex V.A8); assay type: physicochemical; details: HPLC on reversed-phase column (C 18), 40° C., 0.1% aqueous formic acid and acetonitrile, linear gradient 10% to 90% acetonitrile
Label Y for high-side logP (at or above 4) and N for low-side logP (below it).

compound	label
Cn1nc(C(F)F)c(C(=O)NC(C)(C)c2cc(Cl)cc(Cl)c2)c1F	N
CN(Cc1cccc(Oc2ccccc2)c1)C(=O)c1c(C(F)F)nn(C)c1Cl	N
Cn1nc(C(F)F)c(C(=O)NCc2ccccc2SC(F)(F)F)c1Cl	N
Cn1nc(C(F)F)c(C(=O)NC(C)(C)c2cc(Cl)cc(Cl)c2)c1Cl	N
CC(c1cc(Cl)cc(Cl)c1)N(C)C(=O)c1c(C(F)F)nn(C)c1F (centres unmarked)	N
CC(c1ncc(Cl)cc1Cl)N(C(=O)c1c(C(F)F)nn(C)c1F)C1CCCC1 (centres unmarked)	Y
CC(NC(=O)c1c(C(F)F)nn(C)c1F)c1ccc(C2CCCCC2)cc1 (centres unmarked)	Y
Cn1nc(C(F)F)c(C(=O)NCc2ccc(-c3ccccc3)cc2)c1Cl	N
